Assay: Clearance in C57BL/6J mouse at 10 mg/kg, iv by HPLC analysis
Assay type: ADME, organism-based
Settings: in vivo
assay endpoint: clearance (mL/min)
# unit: mL/min | format: bare number

# input Would you mind telling me what clearance value was observed for CCC(CC)(c1ccc(OCCCO)c(C)c1)c1ccc(OCC(O)C(C)(C)C)c(OCC(O)C(C)(C)C)c1 (stereo unspecified) ?
# output 5.17

###

Assay: Half life in C57BL/6J mouse at 20 mg/kg, po by HPLC analysis
Assay type: ADME, organism-based
Conditions: in vivo
assay endpoint: half-life (h)
Number in h, nothing else.

# input Looking for the measured half-life of CCC(CC)(c1ccc(OCCCO)c(C)c1)c1ccc(OCC(O)C(C)(C)C)c(OCC(O)C(C)(C)C)c1 (stereo unspecified) , can you help?
# output 4.12
